- tgt: UniProtKB P29274
- Sequence (P29274 whole entry): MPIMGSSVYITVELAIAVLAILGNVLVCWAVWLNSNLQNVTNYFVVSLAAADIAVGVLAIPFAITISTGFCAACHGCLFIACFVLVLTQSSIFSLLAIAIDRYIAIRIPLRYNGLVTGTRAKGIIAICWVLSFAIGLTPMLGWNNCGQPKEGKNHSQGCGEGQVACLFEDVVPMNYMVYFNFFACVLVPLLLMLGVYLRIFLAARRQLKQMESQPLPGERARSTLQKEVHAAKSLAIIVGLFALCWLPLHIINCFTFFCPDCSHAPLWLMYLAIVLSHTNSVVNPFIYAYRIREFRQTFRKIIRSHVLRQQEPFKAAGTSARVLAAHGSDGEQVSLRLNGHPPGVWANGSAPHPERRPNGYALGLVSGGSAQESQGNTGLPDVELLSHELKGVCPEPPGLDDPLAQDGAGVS
- run_description: cAMP inhibition assay in hA2a/CHO cells
- Format: cell-based
- test_parameters: adenosine stimulation, read-out: cAMP & FLIPR IC50 (nM) hA2a
IC50: recorded values
Give just the number in nM; leave the unit off.

Example compounds with recorded IC50:
In [3]: df
Out[3]:
                                     smiles  result_number
0  Cc1cnc2ccc(-c3c(N4CC5(COC5)C4)nc(N)n4nc(Cc5ncccc5F)nc34)cn12            228
1  Cn1cnc2ccc(-c3c(-c4ccc(F)cc4)nc(N)n4nc(Cc5ncccc5F)nc34)cc21            0.1
2  Cc1cnc2ccc(-c3c(-c4ccc(F)cc4)nc(N)n4nc(C[C@@H]5CCCN5C)nc34)cn12            0.3

Consider the additional compound presented here.
Need IC50 of "CC(C)n1cc(-c2c(-c3ncco3)nc(N)n3nc(Cc4ncccc4F)nc23)ccc1=O" , thanks.
3.6
